Tested on: DIV14
Experiment description: qHTS profiling for inhibitors of Plasmodium falciparum proliferation (AID 504749); also: nearly all actives have a fitted effect of over 60% in size; also: potency is read from the fitted curve at half-maximal effect
Assay conditions: P. falciparum in erythrocytes, SYBR Green DNA, 72 h; series mostly up to 28.7 µM
Results filed as inconclusive are left out. Active and inactive are the calls of the source. Calls follow the shape of the dose curve; as a rule, active = well fitted inhibition curve with a large enough effect; inconclusive = small, poorly fitted or top-dose-only effect; inactive = flat fitted curve, though single readings scatter.
Measured attribute: Potency

Worked cases, Potency given:
O=C1c2c(O)ccc(O)c2C(=O)c2c(NCCNCCO)ccc(NCCNCCO)c21
4.55 µM (active)
CN(C)CCC=C1c2ccccc2C=Cc2ccccc21
2.39 µM (active)
NC(=O)OCC(COC(N)=O)c1ccccc1
inactive
CC(CCc1ccc(O)cc1)NCCc1ccc(O)c(O)c1 (stereo unspecified)
inactive
CS(=O)(=O)CCNCc1ccc(-c2ccc3ncnc(Nc4ccc(OCc5cccc(F)c5)c(Cl)c4)c3c2)o1
inactive
C[C@](N)(Cc1ccc(O)c(O)c1)C(=O)O
inactive

Task item: Given the compound Cc1cn([C@H]2C=C[C@@H](CO)O2)c(=O)[nH]c1=O , what is its reported Potency?
Reply: inactive

Task item: Given the compound CC1(CN2CCC(n3c(=O)[nH]c4ccccc43)CC2)OCc2ccccc2-n2cccc21 (stereo unspecified) , what is its reported Potency?
Reply: 9.53 µM (active)

Task item: Given the compound OCCN1CCN(CCCN2c3ccccc3Sc3ccc(C(F)(F)F)cc32)CC1 , what is its reported Potency?
Reply: 6.75 µM (active)

Task item: Given the compound Cc1cc(C(C)(C)C)c(O)c(C)c1CC1=NCCN1 , what is its reported Potency?
Reply: inactive

Task item: Given the compound CS(=O)(=O)Nc1ccc([N+](=O)[O-])cc1Oc1ccccc1 , what is its reported Potency?
Reply: inactive
